Kindly state concentration at 4 h for each of the entries shown.
Experiment: Brain-to-blood drug concentration ratio of mice
Assay type: in vivo
Conditions: mouse, brain, 2 mg/kg IV, 4 h, read-out: Brain drug concentration
Answers are plain numbers, in ng/mL.

Smiles entry	concentration at 4 h / ng/mL
CC(F)(F)C(=O)N[C@@H]1CCCC[C@H]1N1Cc2ccc(-c3nnc(C(F)F)o3)cc2S1(=O)=O	161

// query Please report the recorded concentration at 4 h for O=C(N[C@@H]1CCCC[C@H]1N1Cc2ccc(-c3nnc(C(F)F)o3)cc2S1(=O)=O)C(F)F .
// result 149

* * *

Test: Phase I metabolic stability in mouse liver microsomes (MLMs)
Type: in vitro ADME, CD-1 mice
Settings: MLM, buffer instead of NADPH regeneration system, 60 min
Property: Remaining rate (NCF = 60 min) (%)
Give bare numbers, in %.

Some molecules with known Remaining rate (NCF = 60 min) results, for comparison:
Molecule	Property	Measurement units	Observed value
CC(F)(F)C(=O)N[C@@H]1CCCC[C@H]1N1Cc2ccc(-c3nnc(C(F)F)o3)cc2S1(=O)=O	Remaining rate (NCF = 60 min)	%	97.6
O=C(N[C@@H]1CCCC[C@H]1N1Cc2ccc(-c3nnc(C(F)F)o3)cc2S1(=O)=O)C(F)F	Remaining rate (NCF = 60 min)	%	99.8
O=S1(=O)c2cc(-c3nnc(C(F)F)o3)ccc2CN1C(c1ccccn1)[C@H](O)c1ccccn1 (stereo partly shown)	Remaining rate (NCF = 60 min)	%	84.39

# context switch: different molecule, same Remaining rate (NCF = 60 min)
// query // lookup Remaining rate (NCF = 60 min) for O=C(N[C@H]1[C@H](N2Cc3ccc(-c4nnc(C(F)F)o4)cc3S2(=O)=O)CCCC1(F)F)C(F)F
// result 83.81

* * *

Kindly state Remaining rate (NCF = 60 min) for each of the entries shown.
Assay: Phase I metabolic stability in human liver microsomes (HLMs)
Assay type: in vitro ADME, humans
Settings: HLM, buffer instead of NADPH regeneration system, 60 min
Numbers only, in %.

Compound	Property	Observed value
O=C(N[C@H]1[C@H](N2Cc3ccc(-c4nnc(C(F)F)o4)cc3S2(=O)=O)CCCC1(F)F)C(F)F	Remaining rate (NCF = 60 min)	86.25
CC(F)(F)C(=O)N[C@@H]1CCCC[C@H]1N1Cc2ccc(-c3nnc(C(F)F)o3)cc2S1(=O)=O	Remaining rate (NCF = 60 min)	83.4
O=C(N[C@@H]1CCCC[C@H]1N1Cc2ccc(-c3nnc(C(F)F)o3)cc2S1(=O)=O)C(F)F	Remaining rate (NCF = 60 min)	97.3

// query Entry O=S1(=O)c2cc(-c3nnc(C(F)F)o3)ccc2CN1C(c1ccccn1)[C@H](O)c1ccccn1 (stereo partly shown) : reported Remaining rate (NCF = 60 min) = ?
// result 84.68

* * *

What AUC(0-t) was measured for each of the following?
Assay: Pharmacokinetic test in mice (IV and PO)
Format: in vivo, BALB/c mice
Conditions: BALB/c, mouse, plasma; mice, IV 1 mg/kg
Numbers only, in µM·h.

These recorded examples may help you get a feel for the data.
Smiles entry	Observed value
O=S1(=O)c2cc(-c3nnc(C(F)F)o3)ccc2CN1[C@H](c1ccccn1)[C@H](O)c1ccc(F)cn1	1.62
Cn1cc([C@@H]([C@H](O)c2ccccc2)N2Cc3ccc(-c4nnc(C(F)F)o4)cc3S2(=O)=O)cn1	5.05
O=C(N[C@@H]1CCOC[C@H]1N1Cc2ccc(-c3nnc(C(F)F)o3)cc2S1(=O)=O)C(F)F	4.22
O=C(N[C@@H]1CCCC[C@H]1N1Cc2ccc(-c3nnc(C(F)F)o3)cc2S1(=O)=O)N1CCOCC1	1.7
CN(C)C(=O)N[C@@H]1CCCC[C@H]1N1Cc2ccc(-c3nnc(C(F)F)o3)cc2S1(=O)=O	1.07
CC(F)(F)C(=O)N[C@@H]1CCCC(F)(F)[C@H]1N1Cc2ccc(-c3nnc(C(F)F)o3)cc2S1(=O)=O	3.48

Here is another molecule to look at.
// query Requested read-out: AUC(0-t). Entry: O=C(N[C@@H]1COCC[C@H]1N1Cc2ccc(-c3nnc(C(F)F)o3)cc2S1(=O)=O)C(F)F
// result 4.42

* * *

Provide the recorded half-life at 1 M for the entries that follow.
Assay: Phase I metabolic stability in rat liver microsomes (RLMs)
Type: in vitro ADME, Sprague-Dawley rats
Conditions: Sprague-Dawley, rat, liver microsomes, pH 7.4; RLM
One number for each entry, in h.

Answered cases to consult:
Compound	half-life at 1 M (h)
O=C(N[C@H]1[C@H](N2Cc3ccc(-c4nnc(C(F)F)o4)cc3S2(=O)=O)CCCC1(F)F)C(F)F	2.14
CC(F)(F)C(=O)N[C@@H]1CCCC[C@H]1N1Cc2ccc(-c3nnc(C(F)F)o3)cc2S1(=O)=O	1.61

// query Endpoint output: half-life at 1 M of O=S1(=O)c2cc(-c3nnc(C(F)F)o3)ccc2CN1C(c1ccccn1)[C@H](O)c1ccccn1 (stereo partly shown) . Value?
// result 0.706

* * *

For each record, write down the corresponding Kp at 1 h.
Test: Brain-to-blood drug concentration ratio of mice
Assay type: in vivo
Conditions: mouse, brain/plasma, 10 mg/kg PO, 1 h
Give bare numbers.

Smiles entry	Observed value
O=C(N[C@@H]1CCCC[C@H]1N1Cc2ccc(-c3nnc(C(F)F)o3)cc2S1(=O)=O)C(F)F	0.18

Read the next record carefully.
// query Data request, read-out Kp at 1 h, for CC(F)(F)C(=O)N[C@@H]1CCCC[C@H]1N1Cc2ccc(-c3nnc(C(F)F)o3)cc2S1(=O)=O
// result 0.18

* * *

Could you please report measured Cmax for the items listed next?
Assay: Pharmacokinetic test in mice (IV and PO)
Format: in vivo, BALB/c mice
Conditions: BALB/c, mouse, plasma, po, 5 mg/kg; read-out: C0/Cmax
Give bare numbers, in µM.

Compound	Cmax, µM
O=C(N[C@@H]1CCCC[C@H]1N1Cc2ccc(-c3nnc(C(F)F)o3)cc2S1(=O)=O)N1CCOCC1 [Compound 113]	5.13

Batch of 2 compounds: report Cmax for each.
1. O=C(N[C@@H]1COCC[C@H]1N1Cc2ccc(-c3nnc(C(F)F)o3)cc2S1(=O)=O)C(F)F [Compound 13]
2. O=S1(=O)c2cc(-c3nnc(C(F)F)o3)ccc2CN1[C@H](c1ccccn1)[C@H](O)c1ccc(F)cn1 [Compound 87]

// result
7.13
5.75

* * *

Test: Pharmacokinetic test in mice (IV and PO)
Type: in vivo, BALB/c mice
Conditions: BALB/c, mouse, plasma, po, 5 mg/kg; read-out: C0/Cmax
Method: In this example, the pharmacokinetic behavior of the compounds after intravenous injection (IV) and intragastric (PO) administration in BALB/c mice was tested. On the day of administration, mice were weighed for actual body weight and the administration volume was calculated. […] Plasma concentrations were determined by a LC-MS/MS method. […] The relevant pharmacokinetic parameters were calculated by a linear logarithmic trapezoid method.
Property: Cmax (µM)
Numbers only, in µM.

Compound	Cmax / µM
O=C(N[C@@H]1CCOC[C@H]1N1Cc2ccc(-c3nnc(C(F)F)o3)cc2S1(=O)=O)C(F)F [Compound 14]	7.27
Cn1cc([C@@H]([C@H](O)c2ccccc2)N2Cc3ccc(-c4nnc(C(F)F)o4)cc3S2(=O)=O)cn1 [Compound 80]	7.17

For the 2 compounds below, give their Cmax values.
1. CN(C)C(=O)N[C@@H]1CCCC[C@H]1N1Cc2ccc(-c3nnc(C(F)F)o3)cc2S1(=O)=O [Compound 93]
2. CC(F)(F)C(=O)N[C@@H]1CCCC(F)(F)[C@H]1N1Cc2ccc(-c3nnc(C(F)F)o3)cc2S1(=O)=O [Compound 10]

// result
1. 3.41
2. 4.77

* * *

This document collects pIC50 values reported for HDAC6 (Homo sapiens (Human), UniProt Q9UBN7).
One number for each entry, as −log10 of the molar value.

Molecule	pIC50
O=C(NCC1CC1)N[C@@H]1CCCC[C@H]1N1Cc2ccc(-c3nnc(C(F)F)o3)cc2S1(=O)=O	6.49
O=S1(=O)c2cc(-c3nnc(C(F)F)o3)ccc2CN1[C@@H](c1ccc(F)cn1)[C@H](O)c1ccc(F)cn1 (single isomer, unassigned) [Compound 88j-A-A]	6.23
Cn1cc([C@H]([C@@H](O)c2ccccc2)N2Cc3ccc(-c4nnc(C(F)F)o4)cc3S2(=O)=O)cn1 (single isomer, unassigned) [Compound 79i-A]	6.93

# map each molecule to its pIC50
1. CS(=O)(=O)N[C@@H]1CCCC[C@H]1N1Cc2ccc(-c3nnc(C(F)F)o3)cc2S1(=O)=O
2. O=C(N[C@@H]1CCCC[C@H]1N1Cc2ccc(-c3nnc(C(F)F)o3)cc2S1(=O)=O)C1CC1

// result
1: 6.71; 2: 7.01

// query Fill in the blank: the reported pIC50 of O=S1(=O)c2cc(-c3nnc(C(F)F)o3)ccc2CN1[C@H](c1ncccn1)[C@H](O)c1ncccn1 [Compound 103j-D] is ____.
// result 6.64
